Species on record: Homo sapiens
Assay: Chemotactic activity was expressed as percentage of random locomotion
Type: functional
Where a SMILES comes first, the peptide text is derived from it. [ ]: non-standard residue; d: D form. The star is where a group is joined. PhLac = O=C(O)[C@@H](O)Cc1ccccc1; NHBn = c1ccc(CN*)cc1; For = O=C*
Field: Chemotactic activity (% of random locomotion). Provide a value for each of the compounds that follow.

Hi, could you look up Chemotactic activity (% of random locomotion) for each item in my list?
1. COC(=O)[C@H](Cc1ccccc1)NC(=O)[C@H](CC(C)C)NC(=O)[C@H](CCSC)NC=O
2. CSCC[C@H](NC=O)C(=O)N[C@@H](CC(C)C)C(=O)O[C@@H](Cc1ccccc1)C(=O)NCc1ccccc1 (For-Met-Leu-[PhLac]-NHBn)
3. COC(=O)[C@H](Cc1ccccc1)NC(=O)C(C)(N)COC(=O)[C@H](CCSC)NC=O (some centres undefined)

Result string:
[62, 55, 7]

Query string: Indicate the recorded Chemotactic activity (% of random locomotion) value for this compound: "COC(=O)[C@H](Cc1ccccc1)NC(=O)[C@H](CC(C)C)OC(=O)[C@H](CCSC)NC=O"
Result string: 9

====

Species: Homo sapiens
Assay: Superoxide anion release expressed as n moles of superoxide anion/2E6 neutrophils/5 min
Type: functional
Where a SMILES comes first, the peptide text is derived from it. [ ]: non-standard residue; d: D form. The star is where a group is joined. PhLac = O=C(O)[C@@H](O)Cc1ccccc1; NHBn = c1ccc(CN*)cc1; For = O=C*
result type: Superoxide anion release
Numbers only.

Example entries and their recorded answers appear below.
| compound | result type | result number |
| --- | --- | --- |
| COC(=O)[C@H](Cc1ccccc1)NC(=O)C(C)(N)COC(=O)[C@H](CCSC)NC=O (some centres undefined) | Superoxide anion release | 0 |
| COC(=O)[C@H](Cc1ccccc1)NC(=O)[C@H](CC(C)C)NC(=O)[C@H](CCSC)NC=O | Superoxide anion release | 44 |
| CSCC[C@H](NC=O)C(=O)N[C@@H](CC(C)C)C(=O)O[C@@H](Cc1ccccc1)C(=O)NCc1ccccc1 (For-Met-Leu-[PhLac]-NHBn) | Superoxide anion release | 14 |

Next up:
Query string: Indicate the recorded Superoxide anion release value for this compound: "COC(=O)[C@H](Cc1ccccc1)NC(=O)[C@H](CC(C)C)OC(=O)[C@H](CCSC)NC=O"
Result string: 0

====

Field: Chemotactic activity at 10^-10 M (% of random locomotion). Provide a value for each of the molecules that follow.
Organism: Homo sapiens
Experiment: Chemotactic activity was expressed as percentage of random locomotion of human neutrophils
Format: functional
Where a SMILES comes first, the peptide text is derived from it. [ ]: non-standard residue; d: D form. The star is where a group is joined. PhLac = O=C(O)[C@@H](O)Cc1ccccc1; NHBn = c1ccc(CN*)cc1; For = O=C*
Answers are plain numbers.

Example entries and their recorded answers appear below.
| molecule | result number |
| --- | --- |
| COC(=O)[C@H](Cc1ccccc1)NC(=O)[C@H](CC(C)C)NC(=O)[C@H](CCSC)NC=O | 105 |
| COC(=O)[C@H](Cc1ccccc1)NC(=O)C(C)(N)COC(=O)[C@H](CCSC)NC=O (some centres undefined) | 10 |
| CSCC[C@H](NC=O)C(=O)N[C@@H](CC(C)C)C(=O)O[C@@H](Cc1ccccc1)C(=O)NCc1ccccc1 (For-Met-Leu-[PhLac]-NHBn) | 62 |

Query string: Indicate the recorded Chemotactic activity at 10^-10 M (% of random locomotion) value for this molecule: "COC(=O)[C@H](Cc1ccccc1)NC(=O)[C@H](CC(C)C)OC(=O)[C@H](CCSC)NC=O"
Result string: 0

meta.source: ChEMBL document CHEMBL1127918
